Tested on: OVCAR-5 ovarian
Assay: NCI tumour cell line growth inhibition, 48 h
PARAMETER: GI50

CC(C)(C)NC(C1=CC(C)(C)c2ccccc2C1=O)c1ccccc1 (stereo not given)    1.82 µM
COc1cc2nc3sc(C(=O)Nc4ccc(C(=O)OC(C)C)cc4)c(C(=O)Nc4ccc(Cl)cc4C)n3c(=O)c2cc1OC    17.4 µM
CC(=O)[CH-]C(=O)c1ccccc1.CC(=O)[CH-]C(=O)c1ccccc1.CC[O-].CC[O-].[Zr+4]    > 100 µM
COc1cc(C(=O)c2ccc3c(c2)OCO3)cc(OC)c1OC    8.96 µM

Next compound, GI50 to be filled in.
Recorded GI50 for O=S(=O)(O)O.[NH-]C1CCCCC1[NH-].[Pt+2] (stereo not given) , please?
> 100 µM
